Data provenance: patent US20240270821A1

- target_under_test: human GLP1-R (SNAP-GLP-1R expressed in HEK293 cells) (human) (UniProt P43220)
- Sequence (P43220 24-463): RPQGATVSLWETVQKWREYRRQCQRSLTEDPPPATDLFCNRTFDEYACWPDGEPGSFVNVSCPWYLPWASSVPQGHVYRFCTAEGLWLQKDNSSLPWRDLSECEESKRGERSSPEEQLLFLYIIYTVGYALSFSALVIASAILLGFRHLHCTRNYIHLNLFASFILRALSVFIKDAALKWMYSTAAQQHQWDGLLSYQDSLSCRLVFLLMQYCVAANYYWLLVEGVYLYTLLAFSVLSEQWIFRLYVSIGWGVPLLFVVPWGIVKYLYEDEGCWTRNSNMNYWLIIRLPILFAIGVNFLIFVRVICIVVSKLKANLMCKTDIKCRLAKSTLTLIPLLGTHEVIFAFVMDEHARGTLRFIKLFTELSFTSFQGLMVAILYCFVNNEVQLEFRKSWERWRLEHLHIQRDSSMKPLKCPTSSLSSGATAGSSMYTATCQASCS
- procedure_summary: cell-based or functional assay
Field: Internalization % TOP. Provide a value for each of the binders that follow.
Kindly answer with a numeric value in %, unit omitted.

Q: What does the data say about its Internalization % TOP? Entry: YXQGTFTSDFSXXLDKKAQXAFIEYLLEGGPSSGAPPPSEG (synthetic construct; SITE 2: note = 2-Aminoisobutyric Acid; SITE 12: note = L-ornithine; SITE 13: note = alpha-methyl-leucine; SITE 17: note = Lysine is chemically modified through conjugation of the epsilon-amino group of the Lysine side chain with (2-[2-(2-Amino-ethoxy)-ethoxy]-acetyl)-(gamma-Glu)) [Example 50]
Result: 31.1

Q: What does the data say about its Internalization % TOP? Entry: YXQGTFTSDFSKXLDKKAQXQFIEYLLEGGPSSGAPPPSEG (synthetic construct; SITE 2: note = 2-Aminoisobutyric Acid; SITE 13: note = alpha-methyl-leucine; SITE 17: note = Lysine is chemically modified through conjugation of the epsilon-amino group of the Lysine side chain with (2-[2-(2-Amino-ethoxy)-ethoxy]-acetyl)-(gamma-Glu)-CO-(CH2) 16-CO2H; SITE 20: n) [Example 51]
Result: 55.7

Q: What does the data say about its Internalization % TOP? Entry: YXQGTFTSDFSXXLDKKAQXAFIEYLLAGGPSSGAPPPEGS (synthetic construct; SITE 2: note = 2-Aminoisobutyric Acid; SITE 12: note = L-ornithine; SITE 13: note = alpha-methyl-leucine; SITE 17: note = Lysine is chemically modified through conjugation of the epsilon-amino group of the Lysine side chain with (2-[2-(2-Amino-ethoxy)-ethoxy]-acetyl)-(gamma-Glu)) [Example 93]
Result: 50.8
